# experimentalSystem: nucleolin RBD1,2 (NCL RBD 1,2) (UniProt P19338 307-466)
# testDetails: fluorescence titration; PhenDC3; PAGE: 10 mM phosphate, 140 mM KCl, 20 uM DNA, 1:1(:1) ratio, 30 min; fluorescence titration buffer, pH and temperature not given in the material
# statedConditions: protein: recombinant; unlabelled in PAGE; stem-loop duplex plus G4; monomer major, dimer band also seen
assayReadout: Kd (nM)
Answers are plain numbers, in nM.

Q: Complete the entry with Kd for GGTTGGGGTGGTGGTGGTTGTGGTGGTGGTGGCCAACC (structured_DNA) [AS1411-N6]
Result: 1500
